Molecular target: T1, 3xFLAG-tagged full-length human PNPLA1, partially purified (pcDNA4/HisMaxC-mut-3xFLAG-hsPNPLA1) (human, UniProt Q8N8W4-1 1-532)
T1 construct: human PNPLA1, full-length open reading frame of NM_001145717.1; also called 3xFLAG-PNPLA1; source: Expi293F, transfected, partially purified (IMAC, HisTrap HP)
T1 sequence (looked up): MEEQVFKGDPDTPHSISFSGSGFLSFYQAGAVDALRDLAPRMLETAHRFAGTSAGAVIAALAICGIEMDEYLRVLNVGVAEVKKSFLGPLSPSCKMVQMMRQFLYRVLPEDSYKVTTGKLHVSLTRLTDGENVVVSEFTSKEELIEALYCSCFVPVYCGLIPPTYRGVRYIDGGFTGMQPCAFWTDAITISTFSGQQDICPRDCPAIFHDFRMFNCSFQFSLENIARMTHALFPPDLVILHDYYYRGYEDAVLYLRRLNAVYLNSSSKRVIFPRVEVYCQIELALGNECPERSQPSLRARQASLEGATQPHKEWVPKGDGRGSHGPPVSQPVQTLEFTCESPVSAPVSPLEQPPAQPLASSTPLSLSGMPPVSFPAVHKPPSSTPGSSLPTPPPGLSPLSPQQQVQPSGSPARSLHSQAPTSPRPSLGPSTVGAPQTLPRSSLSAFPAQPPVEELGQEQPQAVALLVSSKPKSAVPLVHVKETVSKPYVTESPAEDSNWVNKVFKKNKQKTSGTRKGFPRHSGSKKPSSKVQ
Assay: ELISA; solid-phase interaction assay: 1.8 μg/well of purified 3xFLAG-PNPLA1, PLIN2 or PLIN3 coated on MaxiSorp plates (50 mM Tris-HCl pH 8.0, 200 mM NaCl); 40 μg HEK293T lysate with Xpress-tagged ABHD5 variants in TBS with 2% BSA and 0.05% Tween 20, overnight at 4°C; anti-Xpress and HRP secondary antibody, TMB, absorbance at 620 nm, background subtracted and normalised to expression
Conditions: one partner purified
observation.type: change of PNPLA1 binding (normalised absorbance) against wild-type ABHD5 (%)

| binder | obs.value |
| --- | --- |
| Xpress-tagged human ABHD5 p.S115G (natural protein, UniProt Q8WTS1 1-349, looked up, human ABHD5, full-length open reading frame of NM_016006.6 with the patient mutation p.S115G; Disease-associated (ABHD5-sEDD) missense variant made by site-directed mutagenesis; source: HEK293T, transfected (pcDNA4/HisMaxC), in lysate) MAAEEEEVDSADTGERSGWLTGWLPTWCPTSISHLKEAEEKMLKCVPCTYKKEPVRISNGNKIWTLKFSHNISNKTPLVLLHGFGGGLGLWALNFGDLCTNRPVYAFDLLGFGRGSRPRFDSDAEEVENQFVESIEEWRCALGLDKMILLGHNLGGFLAAAYSLKYPSRVNHLILVEPWGFPERPDLADQDRPIPVWIRALGAALTPFNPLAGLRIAGPFGLSLVQRLRPDFKRKYSSMFEDDTVTEYIYHCNVQTPSGETAFKNMTIPYGWAKRPMLQRIGKMHPDIPVSVIFGARSCIDGNSGTSIQSLRPHSYVKTIAILGAGHYVYADQPEEFNQKVKEICDTVD | -17 |
| Xpress-tagged human ABHD5 p.H82R (natural protein, UniProt Q8WTS1 1-349, looked up, human ABHD5, full-length open reading frame of NM_016006.6 with the patient mutation p.H82R; Disease-associated (ABHD5-sEDD) missense variant made by site-directed mutagenesis; source: HEK293T, transfected (pcDNA4/HisMaxC), in lysate) MAAEEEEVDSADTGERSGWLTGWLPTWCPTSISHLKEAEEKMLKCVPCTYKKEPVRISNGNKIWTLKFSHNISNKTPLVLLRGFGGGLGLWALNFGDLCTNRPVYAFDLLGFGRSSRPRFDSDAEEVENQFVESIEEWRCALGLDKMILLGHNLGGFLAAAYSLKYPSRVNHLILVEPWGFPERPDLADQDRPIPVWIRALGAALTPFNPLAGLRIAGPFGLSLVQRLRPDFKRKYSSMFEDDTVTEYIYHCNVQTPSGETAFKNMTIPYGWAKRPMLQRIGKMHPDIPVSVIFGARSCIDGNSGTSIQSLRPHSYVKTIAILGAGHYVYADQPEEFNQKVKEICDTVD | 44 |
| Xpress-tagged human ABHD5 p.G271R (natural protein, UniProt Q8WTS1 1-349, looked up, human ABHD5, full-length open reading frame of NM_016006.6 with the patient mutation p.G271R; Disease-associated (ABHD5-sEDD) missense variant made by site-directed mutagenesis; source: HEK293T, transfected (pcDNA4/HisMaxC), in lysate) MAAEEEEVDSADTGERSGWLTGWLPTWCPTSISHLKEAEEKMLKCVPCTYKKEPVRISNGNKIWTLKFSHNISNKTPLVLLHGFGGGLGLWALNFGDLCTNRPVYAFDLLGFGRSSRPRFDSDAEEVENQFVESIEEWRCALGLDKMILLGHNLGGFLAAAYSLKYPSRVNHLILVEPWGFPERPDLADQDRPIPVWIRALGAALTPFNPLAGLRIAGPFGLSLVQRLRPDFKRKYSSMFEDDTVTEYIYHCNVQTPSGETAFKNMTIPYRWAKRPMLQRIGKMHPDIPVSVIFGARSCIDGNSGTSIQSLRPHSYVKTIAILGAGHYVYADQPEEFNQKVKEICDTVD | -59 |
| Xpress-tagged human ABHD5 p.R297N (natural protein, UniProt Q8WTS1 1-349, looked up, human ABHD5, full-length open reading frame of NM_016006.6 with the patient mutation p.R297N; Disease-associated (ABHD5-sEDD) missense variant made by site-directed mutagenesis; source: HEK293T, transfected (pcDNA4/HisMaxC), in lysate) MAAEEEEVDSADTGERSGWLTGWLPTWCPTSISHLKEAEEKMLKCVPCTYKKEPVRISNGNKIWTLKFSHNISNKTPLVLLHGFGGGLGLWALNFGDLCTNRPVYAFDLLGFGRSSRPRFDSDAEEVENQFVESIEEWRCALGLDKMILLGHNLGGFLAAAYSLKYPSRVNHLILVEPWGFPERPDLADQDRPIPVWIRALGAALTPFNPLAGLRIAGPFGLSLVQRLRPDFKRKYSSMFEDDTVTEYIYHCNVQTPSGETAFKNMTIPYGWAKRPMLQRIGKMHPDIPVSVIFGANSCIDGNSGTSIQSLRPHSYVKTIAILGAGHYVYADQPEEFNQKVKEICDTVD | -87 |
| Xpress-tagged human ABHD5 p.Q130P (natural protein, UniProt Q8WTS1 1-349, looked up, human ABHD5, full-length open reading frame of NM_016006.6 with the patient mutation p.Q130P; Disease-associated (ABHD5-sEDD) missense variant made by site-directed mutagenesis; source: HEK293T, transfected (pcDNA4/HisMaxC), in lysate) MAAEEEEVDSADTGERSGWLTGWLPTWCPTSISHLKEAEEKMLKCVPCTYKKEPVRISNGNKIWTLKFSHNISNKTPLVLLHGFGGGLGLWALNFGDLCTNRPVYAFDLLGFGRSSRPRFDSDAEEVENPFVESIEEWRCALGLDKMILLGHNLGGFLAAAYSLKYPSRVNHLILVEPWGFPERPDLADQDRPIPVWIRALGAALTPFNPLAGLRIAGPFGLSLVQRLRPDFKRKYSSMFEDDTVTEYIYHCNVQTPSGETAFKNMTIPYGWAKRPMLQRIGKMHPDIPVSVIFGARSCIDGNSGTSIQSLRPHSYVKTIAILGAGHYVYADQPEEFNQKVKEICDTVD | 16 |
| Xpress-tagged human ABHD5 p.E260K (natural protein, UniProt Q8WTS1 1-349, looked up, human ABHD5, full-length open reading frame of NM_016006.6 with the patient mutation p.E260K; Disease-associated (ABHD5-sEDD) missense variant made by site-directed mutagenesis; source: HEK293T, transfected (pcDNA4/HisMaxC), in lysate) MAAEEEEVDSADTGERSGWLTGWLPTWCPTSISHLKEAEEKMLKCVPCTYKKEPVRISNGNKIWTLKFSHNISNKTPLVLLHGFGGGLGLWALNFGDLCTNRPVYAFDLLGFGRSSRPRFDSDAEEVENQFVESIEEWRCALGLDKMILLGHNLGGFLAAAYSLKYPSRVNHLILVEPWGFPERPDLADQDRPIPVWIRALGAALTPFNPLAGLRIAGPFGLSLVQRLRPDFKRKYSSMFEDDTVTEYIYHCNVQTPSGKTAFKNMTIPYGWAKRPMLQRIGKMHPDIPVSVIFGARSCIDGNSGTSIQSLRPHSYVKTIAILGAGHYVYADQPEEFNQKVKEICDTVD | 25 |
